target under test: human β3 adrenergic receptor (Homo sapiens, UniProt P13945)
Construct: expressed in transfected cells; host or cells: DXB-11 Chinese hamster ovary (CHO) cell line, stably transfected (phd expression vector)
Sequence (P13945 whole entry): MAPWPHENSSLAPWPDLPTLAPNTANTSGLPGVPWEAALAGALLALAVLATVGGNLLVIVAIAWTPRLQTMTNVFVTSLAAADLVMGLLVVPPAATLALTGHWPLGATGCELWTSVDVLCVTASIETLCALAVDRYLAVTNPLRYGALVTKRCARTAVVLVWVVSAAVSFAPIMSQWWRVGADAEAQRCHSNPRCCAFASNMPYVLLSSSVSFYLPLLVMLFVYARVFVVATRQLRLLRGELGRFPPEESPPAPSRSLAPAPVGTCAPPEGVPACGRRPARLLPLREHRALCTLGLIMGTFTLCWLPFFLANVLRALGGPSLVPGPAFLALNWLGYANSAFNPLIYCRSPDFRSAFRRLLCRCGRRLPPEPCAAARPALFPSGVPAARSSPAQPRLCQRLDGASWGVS
experiment description: whole cell receptor coupled c-AMP assay, human β3 receptor in CHO cells (EC50, Emax relative to isoproterenol)
Assay type: cell-based
condition notes: Emax ± standard error of the mean; average of at least 3 runs except where n = 1; compound tested in the isolated form listed
measured endpoint: Emax (%) ± SEM
Answers are plain numbers, in %.

>  <compound structure>
CC(C)(Cc1ccc(Oc2cccnc2C#N)cc1)NC[C@H](O)COc1ccccc1-c1ccon1.Cl

>  <unit tag>
%

>  <reported>
74.5

$$$$
>  <compound structure>
CC(C)(Cc1ccc(Oc2cccnc2C(N)=O)cc1)NC[C@H](O)COc1ccccc1-c1nccs1.O=C(O)C(F)(F)F

>  <unit tag>
%

>  <reported>
67.7

$$$$
>  <compound structure>
CC(C)(Cc1ccc(Oc2ccc(C(N)=O)cn2)cc1)NC[C@H](O)COc1ccccc1N1CCOCC1.Cl.Cl

>  <unit tag>
%

>  <reported>
29.9

$$$$

Noted Emax (%) ± SEM for CC(C)(Cc1ccc(Oc2ncccc2C(N)=O)cc1)NC[C@H](O)COc1ccccc1-n1ccc(C=O)c1 , tested on human β3 adrenergic receptor (Homo sapiens, UniProt P13945): 40.3

---

For each entry below, report its Emax (%) ± SEM value.
target under test: human β3 adrenergic receptor (Homo sapiens)
Construct: expressed in transfected cells; host or cells: DXB-11 Chinese hamster ovary (CHO) cell line, stably transfected (phd expression vector)
experiment description: whole cell receptor coupled c-AMP assay, human β3 receptor in CHO cells (EC50, Emax relative to isoproterenol)
Format: cell-based
condition notes: Emax ± SEM; average of at least 3 runs except as otherwise indicated; tested as the isolated form listed
Numbers only, in %.

Answered examples (5):
>  <compound structure>
CC(C)(Cc1ccc(Oc2ncccc2C#N)cc1)NC[C@H](O)COc1ccccc1-c1ccoc1.Cl

>  <Emax (%) ± SEM>
82.4

$$$$
>  <compound structure>
CC(C)(Cc1ccc(Oc2ccc(S(C)(=O)=O)cc2)cc1)NC[C@H](O)COc1ccccc1-c1ccoc1.Cl

>  <Emax (%) ± SEM>
44.8

$$$$
>  <compound structure>
CC(C)(Cc1ccc(Oc2cccnc2C#N)cc1)NC[C@H](O)COc1ccccc1-c1ccoc1.Cl

>  <Emax (%) ± SEM>
74.4

$$$$
>  <compound structure>
CC(C)(Cc1ccc(Oc2ccc(C#N)nc2)cc1)NC[C@H](O)COc1ccccc1-c1ccon1.Cl

>  <Emax (%) ± SEM>
52.2

$$$$
>  <compound structure>
CC(C)(Cc1ccc(Oc2ncccc2C(N)=O)cc1)NC[C@H](O)COc1ccccc1-c1ncco1.Cl

>  <Emax (%) ± SEM>
71.2

$$$$

Hi team, please reply with Emax (%) ± SEM for each item in this list.
1. CC(C)(Cc1ccc(Oc2ccccc2C(N)=O)cc1)NC[C@H](O)COc1ccccc1-c1ncco1.O=C(O)C(F)(F)F
2. CC(C)(Cc1ccc(Oc2ccc(C(N)=O)s2)cc1)NC[C@H](O)COc1ccccc1-c1nccs1.O=C(O)C(F)(F)F

## Output
80.2
60.2

---

For each entry below, report its Emax (%) ± SEM value.
target under test: human β3 adrenergic receptor (Homo sapiens, UniProt P13945)
Construct: expressed in transfected cells; host or cells: DXB-11 Chinese hamster ovary (CHO) cell line, stably transfected (phd expression vector)
experiment description: whole cell receptor coupled c-AMP assay, human β3 receptor in CHO cells (EC50, Emax relative to isoproterenol)
Format: cell-based
condition notes: Emax ± standard error of the mean; average of at least 3 runs except where n = 1; compound tested in the isolated form listed
Answers are plain numbers, in %.

Answered examples (5):
>  <compound structure>
CC(C)(Cc1ccc(Oc2ccc(Cl)nn2)cc1)NC[C@H](O)COc1ccccc1-c1cccs1.O=C(O)C(F)(F)F

>  <reported>
92.4

$$$$
>  <compound structure>
CC(C)(Cc1ccc(Oc2ncccc2Cl)cc1)NC[C@H](O)COc1ccccc1-c1ccno1.O=C(O)C(F)(F)F

>  <reported>
52.4

$$$$
>  <compound structure>
CC(C)(Cc1ccc(Oc2ccc(Cl)nn2)cc1)NC[C@H](O)COc1ccccc1-c1ccno1.O=C(O)C(F)(F)F

>  <reported>
89.1

$$$$
>  <compound structure>
CC(C)(Cc1ccc(Oc2cccc(Cl)n2)cc1)NC[C@H](O)COc1ccccc1-c1nccs1.O=C(O)C(F)(F)F

>  <reported>
57.0

$$$$
>  <compound structure>
CC(C)(Cc1ccc(Oc2ccc(C(N)=O)cn2)cc1)NC[C@H](O)COc1ccccc1-c1ncco1

>  <reported>
66.5

$$$$

Noted Emax (%) ± SEM for CC(C)(Cc1ccc(Oc2ccc(C#N)nc2)cc1)NC[C@H](O)COc1ccccc1-c1nccs1.O=C(O)C(F)(F)F , tested on human β3 adrenergic receptor (Homo sapiens, UniProt P13945): 44.6

---

For each entry below, report its Emax (%) ± SEM value.
target under test: human β3 adrenergic receptor (Homo sapiens, UniProt P13945)
Construct: expressed in transfected cells; host or cells: DXB-11 Chinese hamster ovary (CHO) cell line, stably transfected (phd expression vector)
experiment description: whole cell receptor coupled c-AMP assay, human β3 receptor in CHO cells (EC50, Emax relative to isoproterenol)
Assay type: cell-based
condition notes: Emax ± standard error of the mean; average of at least 3 runs except where n = 1; compound tested in the isolated form listed
Give bare numbers, in %.

Answered examples (3):
>  <compound structure>
CC(C)(Cc1ccc(Oc2nc(Cl)c(Cl)cc2Cl)cc1)NC[C@H](O)COc1ccccc1-c1nccs1.O=C(O)C(F)(F)F

>  <target under test>
human β3 adrenergic receptor (Homo sapiens, UniProt P13945)

>  <Emax (%) ± SEM>
73.3

$$$$
>  <compound structure>
CC(C)(Cc1ccc(Oc2cccnc2C(N)=O)cc1)NC[C@H](O)COc1ccccc1-c1ccno1.O=C(O)C(F)(F)F

>  <target under test>
human β3 adrenergic receptor (Homo sapiens, UniProt P13945)

>  <Emax (%) ± SEM>
48.1

$$$$
>  <compound structure>
CC(C)(Cc1ccc(Oc2ccc(S(C)(=O)=O)cc2)cc1)NC[C@H](O)COc1ccccc1-c1ccon1.Cl

>  <target under test>
human β3 adrenergic receptor (Homo sapiens, UniProt P13945)

>  <Emax (%) ± SEM>
47.7

$$$$

Hi team, please reply with Emax (%) ± SEM for each item in this list.
1. CC(C)(Cc1ccc(Oc2ccc(C(N)=O)nc2)cc1)NC[C@H](O)COc1ccccc1-c1ccns1.O=C(O)C(F)(F)F
2. CC(C)(Cc1ccc(Oc2ccccc2C(N)=O)cc1)NC[C@H](O)COc1cccc(F)c1-c1cccs1.O=C(O)C(F)(F)F
3. CC(C)(Cc1ccc(Oc2ncc(Cl)cc2Cl)cc1)NC[C@H](O)COc1ccccc1-c1ccno1.O=C(O)C(F)(F)F

## Output
[70.5, 28.9, 59.3]

---

target under test: human β3 adrenergic receptor (Homo sapiens, UniProt P13945)
Construct: expressed in transfected cells; host or cells: DXB-11 Chinese hamster ovary (CHO) cell line, stably transfected (phd expression vector)
experiment description: whole cell receptor coupled c-AMP assay, human β3 receptor in CHO cells (EC50, Emax relative to isoproterenol)
Type: cell-based
condition notes: Emax ± standard error of the mean; average of at least 3 runs except where n = 1; compound tested in the isolated form listed
For each entry below, report its Emax (%) ± SEM value.
Please answer in the form of a number followed by its unit of measurement.

>  <molecule>
CC(C)(Cc1ccc(Oc2ncccc2C#N)cc1)NC[C@H](O)COc1ccccc1-c1cnco1.Cl [Example 65]

>  <reported>
55.9 ± 5.8%

$$$$
>  <molecule>
CC(C)(Cc1ccc(Oc2ncccc2C(N)=O)cc1)NC[C@H](O)COc1ccccc1N1CCNCC1.Cl.Cl.Cl [Example 80]

>  <reported>
12.3 ± 0.2%

$$$$
>  <molecule>
CC(C)(Cc1ccc(Oc2cccc(Cl)n2)cc1)NC[C@H](O)COc1ccccc1-c1cccs1.O=C(O)C(F)(F)F [Example 175]

>  <reported>
67.4 ± 3.9%

$$$$

Field Emax (%) ± SEM (entry CC(C)(Cc1ccc(Oc2ncccc2C(N)=O)cc1)NC[C@H](O)COc1ccccc1-c1ccno1 [Example 72] ) reads 67.6 ± 7.1%

---

target under test: human β3 adrenergic receptor (Homo sapiens, UniProt P13945)
Construct: expressed in transfected cells; host or cells: DXB-11 Chinese hamster ovary (CHO) cell line, stably transfected (phd expression vector)
experiment description: whole cell receptor coupled c-AMP assay, human β3 receptor in CHO cells (EC50, Emax relative to isoproterenol)
Assay type: cell-based
condition notes: Emax ± standard error of the mean; average of at least 3 runs except where n = 1; compound tested in the isolated form listed
measured endpoint: Emax (%) ± SEM
Numbers only, in %.

Answered examples (5):
>  <compound structure>
CCOC(=O)c1cccnc1Oc1ccc(CC(C)(C)NC[C@H](O)COc2ccccc2-c2cccs2)cc1.O=C(O)C(F)(F)F

>  <Emax (%) ± SEM>
87.1

$$$$
>  <compound structure>
CC(C)(Cc1ccc(Oc2ccc(S(C)(=O)=O)cc2)cc1)NC[C@H](O)COc1ccccc1-c1ccno1

>  <Emax (%) ± SEM>
34.6

$$$$
>  <compound structure>
CC(C)(Cc1ccc(Oc2ccc(C(N)=O)cc2Cl)cc1)NC[C@H](O)COc1ccccc1-c1cscn1.Cl

>  <Emax (%) ± SEM>
37.6

$$$$
>  <compound structure>
CC(C)(Cc1ccc(Oc2ccc(C(N)=O)cc2F)cc1)NC[C@H](O)COc1ccccc1-c1ccno1.O=C(O)C(F)(F)F

>  <Emax (%) ± SEM>
40.3

$$$$
>  <compound structure>
CC(C)(Cc1ccc(Oc2ccc(Cl)cn2)cc1)NC[C@H](O)COc1ccccc1-c1cccs1.O=C(O)C(F)(F)F

>  <Emax (%) ± SEM>
57.3

$$$$

Continue with the molecule presented below.
Field Emax (%) ± SEM (entry CC(C)(Cc1ccc(Oc2ccc(C(N)=O)cn2)cc1)NC[C@H](O)COc1ccccc1-n1cccc1.Cl ) reads 48.4
